# Read-out: growth arrest and DNA damage 45 (GADD45B), GADD45B (gene 4616)
# Method: LTEA_HepaRG_GADD45B: Life Technologies and Expression Analysis (LTEA) Assay for growth arrest and DNA damage 45 (GADD45B) using HepaRG (AID 2283461)
# Experimental Setup: mRNA level, 48 h; actives raise or lower the signal
The source made the active and inactive calls. The calls were made as follows: active = hit-call score of the fitted dose curve at least 0.9, where 1 is the maximum; inactive = score below 0.9.
Log the outcome using a class from 1.0 = active, 0.0 = inactive

{"columns": ["Compound", "Classification"],
 "data": [
  ["O=S(=O)(O)c1ccc(N=Nc2c(O)ccc3cc(S(=O)(=O)O)ccc23)cc1", 0.0],
  ["O=C(O)[C@H](O)[C@@H](O)C(=O)O", 0.0]
]}

Incoming: Which result was noted for this compound in the test: CC(C)c1nnc2ccc(-c3ocnc3-c3cc(F)ccc3F)cn12
Outgoing: 0.0

Incoming: Dear all, I need the recorded test outcome for CCCCCCCCCCCCCCCCOS(=O)(=O)O , thank you.
Outgoing: 0.0

Incoming: Record lookup: outcome of this test for C=CCc1cc(S(=O)(=O)c2ccc(O)c(CC=C)c2)ccc1O ?
Outgoing: 0.0

Incoming: Dear colleague, could you share the recorded outcome for CCCCCCCCCCCCCCO when you have a moment?
Outgoing: 0.0

Incoming: Hello, I am checking results. What call was entered for O=C(O)c1ccc2c(c1)nc(C(=O)NC1CCN(C3CC3)CC1)n2Cc1cc(-c2ccc(Cl)s2)on1 ?
Outgoing: 0.0

Incoming: What did the test return for NC(=O)N1c2ccccc2C=Cc2ccccc21 ?
Outgoing: 0.0

Incoming: Lab log entry: Cc1nccn1-c1ccc(Sc2cccc(C3(C(N)=O)CCOCC3)c2)cc1 — outcome as called in the assay?
Outgoing: 1.0

Incoming: What did this assay record as the result for CCCCC(CC)C(=O)OCCOCCOCCOC(=O)C(CC)CCCC (stereo not given) ?
Outgoing: 0.0

Incoming: I would be grateful if you could indicate the recorded call for CCCCOC(=O)c1ccccc1 .
Outgoing: 0.0

Incoming: Answer briefly: the call reported for Cc1ncc([C@@H](CCCCCCc2ccc3c(n2)NCCC3)CC(=O)O)cn1 in this assay.
Outgoing: 0.0

Incoming: What was the test verdict on COc1cc(C(C)C)c2c(c1)S(=O)(=O)N(COc1cc(=O)n3cccc(OCCN4CCCCC4)c3n1)C2=O ?
Outgoing: 0.0

Incoming: Recorded test call requested for CCCCCCOC(=O)CC(CC(=O)OCCCCCC)(OC(=O)CCC)C(=O)OCCCCCC
Outgoing: 0.0

Incoming: Which outcome was assigned to CCCCN1C(=O)[C@@H]([C@H](O)C2CCCCC2)NC(=O)C12CCN(Cc1ccc(Oc3ccc(C(=O)O)cc3)cc1)CC2 in this test?
Outgoing: 1.0

====

# Read-out: Low-density lipoprotein receptor (LDLR), LDLR (gene 3949)
# Method: BSK_CASM3C_LDLR: BioMAP Diversity Plus: CASM3C Assay for Low-density lipoprotein receptor (LDLR) Biomarker Activity (AID 2283045);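 also: LDLR protein level on the cell surface quantified by ELISA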
# Experimental Setup: primary human coronary artery smooth muscle cells; actives raise or lower the signal
The source made the active and inactive calls. The calls were made as follows: active = hit-call score of the fitted dose curve at least 0.9, where 1 is the maximum; inactive = score below 0.9.
Please answer using one outcome listed in active, inactive

// below: answered compounds
{"columns": ["Compound", "Classification"],
 "data": [
  ["CC[C@H](C)C(=O)O[C@H]1C[C@H](O)C=C2C=C[C@H](C)[C@H](CC[C@@H](O)C[C@@H](O)CC(=O)O)[C@H]21", "inactive"],
  ["CCCCCCCC1CCC(=O)O1 (stereo not drawn)", "inactive"],
  ["COCc1nnc(-c2ccc[n+]([O-])c2)n1-c1c(Cl)c(Cl)cc2[nH]c(=O)c(=O)[nH]c12", "inactive"],
  ["CCn1nc(C)c2c1C(=O)NCC(c1ccc(O)cc1)=N2", "inactive"],
  ["NC(N)=O", "inactive"],
  ["c1ccc(C(O[C@@H]2CCCN(CCc3ccc4c(c3)OCO4)C2)c2ccccc2)cc1", "active"],
  ["CCCOc1ccc(S(=O)(=O)N2CCN(CC)CC2)cc1-c1nc2c(CC)n(Cc3ccccn3)nc2c(=O)[nH]1", "inactive"],
  ["CCc1cccc(CC)c1N", "inactive"],
  ["NCC(F)(F)C(F)(F)C(F)(F)C(F)(F)F", "inactive"],
  ["CCCCCCCCCC", "inactive"]
]}

Incoming: Look up the recorded call for CCCCCCCC/C=C\CCCCCCCC(=O)OC[C@@H](O)[C@H]1OC[C@H](O)[C@H]1O in this test.
Outgoing: inactive

Incoming: What did this assay record as the result for Cc1cccc(O)c1C ?
Outgoing: inactive

Incoming: What did the test return for CC(C)C(=O)Nc1ccc([N+](=O)[O-])c(C(F)(F)F)c1 ?
Outgoing: active

Incoming: Hello, I am checking results. What call was entered for O=c1[nH]cnc2c1ncn2[C@H]1CC[C@@H](CO)O1 ?
Outgoing: inactive

Incoming: Entry COc1cc(C(C)C)c2c(c1)S(=O)(=O)N(COc1cc(=O)n3cccc(OCCN4CCCCC4)c3n1)C2=O : call = ?
Outgoing: active

Incoming: Given CCCCCCCCN(C)C , state the outcome it received in this test.
Outgoing: inactive

Incoming: Each compound tested received a call. Report the one for OCc1ccccc1 .
Outgoing: inactive

Incoming: Please indicate how the test categorized O=S(=O)(O)CCC(F)(F)C(F)(F)C(F)(F)C(F)(F)C(F)(F)C(F)(F)F .
Outgoing: inactive

Incoming: // return assay outcome for C[C@]12C=CC(=O)C=C1CC[C@H]1[C@@H]3C[C@@H](O)[C@](O)(C(=O)CO)[C@@]3(C)C[C@H](O)[C@@]12F
Outgoing: inactive

Incoming: Hello, I am checking results. What call was entered for OC(CCl)CCl ?
Outgoing: inactive

Incoming: Could you check what this test reported for FC(F)(F)C(F)(F)C(F)(F)C(F)(F)C(F)(F)C(F)(F)I ?
Outgoing: inactive

Incoming: Per the records of this test, what outcome belongs to FC(F)(F)COC(OCC(F)(F)F)OCC(F)(F)F ?
Outgoing: inactive

Incoming: Each compound tested received a call. Report the one for CC(C)CCCCCCOC(=O)C1CCCCC1C(=O)OCCCCCCC(C)C (stereo not drawn) .
Outgoing: inactive
